% Inhibition: recorded values
Tested on: P. falciparum stage V gametocytes
Design: BacTiter-Glo ATP luminescence viability of purified stage V gametocytes in 384-well plates, per cent inhibition versus DMSO
COND: 48 h, 5 µM; inhibitor
The whole screen tested about 13,000 compounds, of which about 3,200 (25%) showed an effect of 50% or more. This is one part of the list.
Numeric only. Scale: %

CCCCN(CCCC)CCCN(CCCN(CCCC)CCCC)c1cc(C)nc(Nc2ccc3cc(Br)ccc3c2)n1 [TCMDC-138005] | 117
FC(F)(F)c1ccc2nc(-c3ccc(-c4cccc(CNCc5ccccc5)c4)cc3)[nH]c2c1 [TCMDC-132704] | 67.94
O=C(NCc1ccccc1)Nc1ccc(-c2ccc(-c3nc4ccc(C(F)(F)F)cc4[nH]3)cc2)cc1 [TCMDC-133157] | -8.983
CCN(CCCN1CCCCC1)c1cc(C)nc(Nc2ccc(OC)cc2)n1 [TCMDC-132430] | -5.018
FC(F)(F)c1ccc2nc(-c3cccc(-c4ccc(CNCc5ccccc5)cc4)c3)[nH]c2c1 [TCMDC-132712] | -50.86
CS(=O)(=O)c1ccc(CNCc2ccc(-c3cccc(-c4nc5ccc(C(F)(F)F)cc5[nH]4)c3)cc2)cc1 [TCMDC-132897] | 17.9
CCN(CCCN1CCCCC1)c1cc(C)nc(Nc2ccc(C)c(C)c2)n1 [TCMDC-132440] | 22.96

Give recorded % Inhibition. Nc1cccc(CNCc2ccc(-c3cccc(-c4nc5ccc(C(F)(F)F)cc5[nH]4)c3)cc2)c1 [TCMDC-132929]
-69.76

###

% Inhibition: recorded values
System: P. falciparum stage V gametocytes
Set-up: BacTiter-Glo ATP luminescence viability of purified stage V gametocytes in 384-well plates, per cent inhibition versus DMSO
COND: 48 h, 5 µM; inhibitor
Screen size: about 13,000 compounds; about 3,200 (25%) showed an effect of 50% or more. The list shows a part of the results.
Numeric only. Scale: %

Worked cases, answers included:
COc1ccc2nc(-c3ccccc3)cc(NN=Cc3ccncc3)c2c1 | -9.454
O=S(=O)(Nc1ccc(CCN2CCC(N3CCCCC3)CC2)cc1)c1ccc2ccccc2c1 | 52.17
COc1ccc(C2C(C(=O)OC3CCCCC3)=C(C)NC3=C2C(=O)CCC3)cc1Br (centres unmarked) | -15.5

Give recorded % Inhibition. N=C1N=C(N)NC2(CCCCC2)N1OCC1CCCCC1
-29.76

Give recorded % Inhibition. Cc1nnsc1C(=O)Nc1cccc(-c2ccc(-c3nc4ccc(F)cc4[nH]3)cc2)c1
79.62

Give recorded % Inhibition. CN1C(=O)OC[C@@H]1Cc1ccc2[nH]cc(C3=CCN(Cc4ccccc4)CC3)c2c1
15.2

Give recorded % Inhibition. CCOC(=O)c1cn(CC)c2cc(N(C)CCc3ccc(OC)c(OC)c3)c(F)cc2c1=O
16.46

Give recorded % Inhibition. CN1CCN(c2cc(-c3cccc(C(F)(F)F)c3)nc(-c3ccncc3)n2)CC1
29.7

Give recorded % Inhibition. O=C(O)C(F)(F)F.c1cc(CNCC2CCCO2)cc(-c2ccc(-c3nc4ccccc4[nH]3)s2)c1 (centres unmarked)
-4.99

Give recorded % Inhibition. Cc1c(CCC#N)c(NCc2ccccc2)n2c(nc3ccccc32)c1C#N
74.35

Give recorded % Inhibition. O=C(NCc1ccc(F)cc1)Nc1ccc(-c2cccc(-c3nc4ccc(F)cc4[nH]3)c2)cc1
-35.38

Give recorded % Inhibition. CCCCOc1cc2c(cc1OCC)C(C=Cc1ccc(Cl)cc1Cl)=NCC2.Cl
76.64

Give recorded % Inhibition. CC(C)(CNCc1ccc(F)c(F)c1)c1nc(-c2ccc(Cl)c(O)c2)c(-c2ccnc(N)n2)[nH]1
-6.922

Give recorded % Inhibition. CCCCNc1c(CC)c(C)c(C#N)c2nc3ccccc3n12
72.07

Give recorded % Inhibition. CCCOc1cc2c(cc1OCCC)C(C=Cc1ccc(Cl)cc1Cl)=NC(C)C2.Cl (centres unmarked)
86.79

Give recorded % Inhibition. CCOc1ccc2nc(C)cc(NN=Cc3cccnc3)c2c1
3.839

Give recorded % Inhibition. Cc1cc(NS(=O)(=O)c2cccc(C(C)N3CCC(N4CCCC4)CC3)c2)ccc1C(C)C (centres unmarked)
8.518

Give recorded % Inhibition. Nc1nc(-c2ccccn2)nc(-n2nc(-c3cccc(C(F)(F)F)c3)cc2N)n1
76.36

Give recorded % Inhibition. CC(=O)Nc1nc(C(=O)Nc2cccc(-c3ccc(-c4nc5ccc(F)cc5[nH]4)cc3)c2)cs1
7.232

Give recorded % Inhibition. Oc1cc(Nc2ccnc3cc(I)ccc23)ccc1F
-46.78

Give recorded % Inhibition. CC(=O)NC1=NC(C)(C)N(OCc2ccc(Cl)c(Cl)c2)C(NC(C)=O)=N1
-1.877

Give recorded % Inhibition. Nc1cc(-c2cccc(Cl)c2)nn1-c1ccnc2cc(Cl)ccc12
-29.85

Give recorded % Inhibition. O=S(=O)(Nc1cccc(CCN2CCC(N3CCCCC3)CC2)c1)c1ccc2c(c1)OCCO2
55.86

Give recorded % Inhibition. CC(C)CNCc1cccc(-c2ccc(CNC3CCN(Cc4ccccc4)CC3)cc2)c1
103

Give recorded % Inhibition. CCCCN(Cc1cnccc1-c1ccc(Br)cc1)c1ccc(C(O)(C(F)(F)F)C(F)(F)F)cc1
23.71

Give recorded % Inhibition. COc1ccc2nc(C)cc(NN=Cc3ccncc3)c2c1
88.79

###

% Inhibition: recorded values
Tested on: P. falciparum stage V gametocytes
Design: BacTiter-Glo ATP luminescence viability of purified stage V gametocytes in 384-well plates, per cent inhibition versus DMSO
COND: 48 h, 5 µM; inhibitor
The campaign covered roughly 13,000 compounds. About 3,200 (25%) showed an effect of 50% or more. Some of the results follow.
Numeric only. Scale: %

Worked cases, answers included:
c1cc2[nH]c(CCc3nc4cc(C5=NC6CCCCC6N5)ccc4[nH]3)nc2cc1C1=NC2CCCCC2N1 (centres unmarked) [TCMDC-137238] | -12.99
NC(N)=NN=Cc1c2ccccc2c(Cl)c2c(Cl)cccc12 [TCMDC-137898] | 83.04
COc1ccc(C2CC(c3cccs3)=NN2C(=O)c2ccco2)cc1OC (centres unmarked) [TCMDC-123796] | 12.69
c1cc2nc(CCCc3nc4ccc(C5=N[C@H]6CCCC[C@H]6N5)cc4[nH]3)[nH]c2cc1C1=N[C@@H]2CCCC[C@@H]2N1 [TCMDC-137234] | -8.612
NC(N)=NN=Cc1c2ccccc2c(Cl)c2cc(Cl)ccc12 [TCMDC-137903] | 96.19
O=C(Nc1ccc(OC2CCN(Cc3ccsc3)C2)c(Cl)c1)c1ccc(F)cc1 (centres unmarked) [TCMDC-133952] | 22.72
O=C(Nc1ccc(Cl)cc1C(=O)Nc1cccc(F)c1)c1ccc([N+](=O)[O-])cc1 [TCMDC-123788] | -68.85

Now examine the next entry.
Give recorded % Inhibition. NC(N)=NN=Cc1c[nH]c2ccc(-c3ccccc3)cc12 [TCMDC-138961]
-59.33

###

% Inhibition: recorded values
System: P. falciparum stage V gametocytes
Parameters: BacTiter-Glo ATP luminescence viability of purified stage V gametocytes in 384-well plates, per cent inhibition versus DMSO
COND: 48 h, 5 µM; inhibitor
Among all 13,000 compounds or so, about 3,200 (25%) showed an effect of 50% or more. The list shows a part of the results.
Numeric only. Scale: %

CCc1cn(CCS(C)(=O)=O)c2ccc(C(=O)N[C@@H](Cc3ccccc3)[C@H](O)CNC(C)(C)CCCC(C)C)cc12 [TCMDC-135268] | 68.72

Now examine the next entry.
Give recorded % Inhibition. CN(C)c1ccc(CN2CCC(NC(=O)c3ccc(-c4cccc(C(F)(F)F)c4)s3)CC2)cc1 [TCMDC-134325]
-44.98

###

% Inhibition: recorded values
Tested on: P. falciparum stage V gametocytes
Design: BacTiter-Glo ATP luminescence viability of purified stage V gametocytes in 384-well plates, per cent inhibition versus DMSO
COND: 48 h, 5 µM; inhibitor
Among all 13,000 compounds or so, about 3,200 (25%) showed an effect of 50% or more. Some of the results follow.
Numeric only. Scale: %

Worked cases, answers included:
NS(=O)(=O)CCc1cccc(Nc2nccc(-c3c(-c4cccc(NC(=O)c5c(F)cccc5F)c4)nn4ccccc34)n2)c1 | -73.1
CC(=O)c1nccc(C)c1N | -14.24

Give recorded % Inhibition. O=C(c1cccc(-c2cccc(-c3nc4cc(C(F)(F)F)ccc4[nH]3)c2)c1)N1CCCCC1CN1CCC(O)C1 (centres unmarked)
-18.68

Give recorded % Inhibition. CC1(C)C=C(c2ccncc2)c2cc(Cl)ccc2O1
-9.955

Give recorded % Inhibition. O=c1ccc2ccc(F)cc2n1CCN1CCC(NCc2ccc(-c3ccccn3)s2)CC1
2.874

Give recorded % Inhibition. O=C(NCCc1ccc(Cl)c(Cl)c1)[C@@H]1CCCN1C(=O)c1ccc(O)c(-c2ccc(Cl)c(Cl)c2)c1
35.67

Give recorded % Inhibition. COc1ccc2cc(C(c3nnnn3CC3CCCO3)N3CCc4ccccc43)c(=O)[nH]c2c1 (centres unmarked)
43.68

Give recorded % Inhibition. CC(=O)Nc1nc(C(=O)Nc2ccc(-c3ccc(-c4nc5c(C)cccc5[nH]4)cc3)cc2)cs1
-51.44
